Kindly state Peptide Concentration-induced 50% ANTS/DPX leakage at pH 4.8, POPC Vesicle for each of the entries shown.
experiment: ANTS/DPX liposome leakage assay, POPC vesicles; assay type: biochemical; settings: 0.5 mM vesicles, pH 4.8, lipid per peptide
Numbers only, in L/P.

CC(C)C[C@H](NC(=O)CN)C(=O)N[C@@H](CC(C)C)C(=O)N[C@@H](CCCCN)C(=O)N[C@@H](CC(C)C)C(=O)N[C@@H](CC(C)C)C(=O)N[C@@H](CCC(=O)O)C(=O)N[C@@H](CC(C)C)C(=O)N[C@@H](CC(C)C)C(=O)N[C@@H](CC(C)C)C(=O)N[C@@H](CCCCN)C(=O)N[C@@H](C)C(=O)N[C@@H](C)C(=O)NCC(=O)N[C@@H](Cc1c[nH]c2ccccc12)C(N)=O :: 110

Continue with the compound presented below.
stdin: Please give the documented Peptide Concentration-induced 50% ANTS/DPX leakage at pH 4.8, POPC Vesicle of CC(C)C[C@H](NC(=O)CN)C(=O)N[C@@H](CC(C)C)C(=O)N[C@@H](CCC(=O)O)C(=O)N[C@@H](CC(C)C)C(=O)N[C@@H](CC(C)C)C(=O)N[C@@H](CCC(=O)O)C(=O)N[C@@H](CC(C)C)C(=O)N[C@@H](CC(C)C)C(=O)N[C@@H](CC(C)C)C(=O)N[C@@H](CCC(=O)O)C(=O)N[C@@H](C)C(=O)N[C@@H](C)C(=O)NCC(=O)N[C@@H](Cc1c[nH]c2ccccc12)C(N)=O
stdout: 35

----------
test: ANTS/DPX liposome leakage assay, POPC vesicles; format: biochemical; details: 0.5 mM vesicles, pH 4.8, lipid per peptide
Kindly state Peptide Concentration-induced 50% ANTS/DPX leakage at pH 4.8, POPC Vesicle for each of the entries shown.
Answers are plain numbers, in L/P.

For each of the molecules below, state Peptide Concentration-induced 50% ANTS/DPX leakage at pH 4.8, POPC Vesicle.
1. CC(C)C[C@H](NC(=O)CN)C(=O)N[C@@H](CC(C)C)C(=O)N[C@@H](CCCCN)C(=O)N[C@@H](CC(C)C)C(=O)N[C@@H](CC(C)C)C(=O)N[C@@H](Cc1c[nH]cn1)C(=O)N[C@@H](CC(C)C)C(=O)N[C@@H](CC(C)C)C(=O)N[C@@H](CC(C)C)C(=O)N[C@@H](CCCCN)C(=O)N[C@@H](C)C(=O)N[C@@H](C)C(=O)NCC(=O)N[C@@H](Cc1c[nH]c2ccccc12)C(N)=O [KHK]
2. CC(C)C[C@H](NC(=O)CN)C(=O)N[C@@H](CC(C)C)C(=O)N[C@@H](Cc1c[nH]cn1)C(=O)N[C@@H](CC(C)C)C(=O)N[C@@H](CC(C)C)C(=O)N[C@@H](CCCCN)C(=O)N[C@@H](CC(C)C)C(=O)N[C@@H](CC(C)C)C(=O)N[C@@H](CC(C)C)C(=O)N[C@@H](CCCCN)C(=O)N[C@@H](C)C(=O)N[C@@H](C)C(=O)NCC(=O)N[C@@H](Cc1c[nH]c2ccccc12)C(N)=O [HKK]

stdout:
140
106

For each of the molecules below, state Peptide Concentration-induced 50% ANTS/DPX leakage at pH 4.8, POPC Vesicle.
1. CC(C)C[C@H](NC(=O)CN)C(=O)N[C@@H](CC(C)C)C(=O)N[C@@H](CC(=O)O)C(=O)N[C@@H](CC(C)C)C(=O)N[C@@H](CC(C)C)C(=O)N[C@@H](CCCCN)C(=O)N[C@@H](CC(C)C)C(=O)N[C@@H](CC(C)C)C(=O)N[C@@H](CC(C)C)C(=O)N[C@@H](Cc1c[nH]cn1)C(=O)N[C@@H](C)C(=O)N[C@@H](C)C(=O)NCC(=O)N[C@@H](Cc1c[nH]c2ccccc12)C(N)=O [DKH]
2. CC(C)C[C@H](NC(=O)CN)C(=O)N[C@@H](CC(C)C)C(=O)N[C@@H](CCC(=O)O)C(=O)N[C@@H](CC(C)C)C(=O)N[C@@H](CC(C)C)C(=O)N[C@@H](CCC(=O)O)C(=O)N[C@@H](CC(C)C)C(=O)N[C@@H](CC(C)C)C(=O)N[C@@H](CC(C)C)C(=O)N[C@@H](CCCCN)C(=O)N[C@@H](C)C(=O)N[C@@H](C)C(=O)NCC(=O)N[C@@H](Cc1c[nH]c2ccccc12)C(N)=O [EEK]

stdout:
41
39

stdin: Please give the documented Peptide Concentration-induced 50% ANTS/DPX leakage at pH 4.8, POPC Vesicle of CC(C)C[C@H](NC(=O)CN)C(=O)N[C@@H](CC(C)C)C(=O)N[C@@H](Cc1c[nH]cn1)C(=O)N[C@@H](CC(C)C)C(=O)N[C@@H](CC(C)C)C(=O)N[C@@H](CCC(=O)O)C(=O)N[C@@H](CC(C)C)C(=O)N[C@@H](CC(C)C)C(=O)N[C@@H](CC(C)C)C(=O)N[C@@H](Cc1c[nH]cn1)C(=O)N[C@@H](C)C(=O)N[C@@H](C)C(=O)NCC(=O)N[C@@H](Cc1c[nH]c2ccccc12)C(N)=O [HEH]
stdout: 173

----------
test: ANTS/DPX liposome leakage assay, POPC vesicles; type: biochemical; conditions: 0.5 mM vesicles, pH 4.8, lipid per peptide
readout label: Peptide Concentration-induced 50% ANTS/DPX leakage at pH 4.8, POPC Vesicle (L/P)
Answers are plain numbers, in L/P.

Please review the following examples before continuing.
CC(C)C[C@H](NC(=O)CN)C(=O)N[C@@H](CC(C)C)C(=O)N[C@@H](CCC(=O)O)C(=O)N[C@@H](CC(C)C)C(=O)N[C@@H](CC(C)C)C(=O)N[C@@H](CCCCN)C(=O)N[C@@H](CC(C)C)C(=O)N[C@@H](CC(C)C)C(=O)N[C@@H](CC(C)C)C(=O)N[C@@H](Cc1c[nH]cn1)C(=O)N[C@@H](C)C(=O)N[C@@H](C)C(=O)NCC(=O)N[C@@H](Cc1c[nH]c2ccccc12)C(N)=O :: 55
CC(C)C[C@H](NC(=O)CN)C(=O)N[C@@H](CC(C)C)C(=O)N[C@@H](CCC(=O)O)C(=O)N[C@@H](CC(C)C)C(=O)N[C@@H](CC(C)C)C(=O)N[C@@H](Cc1c[nH]cn1)C(=O)N[C@@H](CC(C)C)C(=O)N[C@@H](CC(C)C)C(=O)N[C@@H](CC(C)C)C(=O)N[C@@H](CCCCN)C(=O)N[C@@H](C)C(=O)N[C@@H](C)C(=O)NCC(=O)N[C@@H](Cc1c[nH]c2ccccc12)C(N)=O :: 55
CC(C)C[C@H](NC(=O)CN)C(=O)N[C@@H](CC(C)C)C(=O)N[C@@H](CC(=O)O)C(=O)N[C@@H](CC(C)C)C(=O)N[C@@H](CC(C)C)C(=O)N[C@@H](CCC(=O)O)C(=O)N[C@@H](CC(C)C)C(=O)N[C@@H](CC(C)C)C(=O)N[C@@H](CC(C)C)C(=O)N[C@@H](CCCCN)C(=O)N[C@@H](C)C(=O)N[C@@H](C)C(=O)NCC(=O)N[C@@H](Cc1c[nH]c2ccccc12)C(N)=O :: 10
CC(C)C[C@H](NC(=O)CN)C(=O)N[C@@H](CC(C)C)C(=O)N[C@@H](CCCCN)C(=O)N[C@@H](CC(C)C)C(=O)N[C@@H](CC(C)C)C(=O)N[C@@H](CCC(=O)O)C(=O)N[C@@H](CC(C)C)C(=O)N[C@@H](CC(C)C)C(=O)N[C@@H](CC(C)C)C(=O)N[C@@H](Cc1c[nH]cn1)C(=O)N[C@@H](C)C(=O)N[C@@H](C)C(=O)NCC(=O)N[C@@H](Cc1c[nH]c2ccccc12)C(N)=O :: 188
CC(C)C[C@H](NC(=O)CN)C(=O)N[C@@H](CC(C)C)C(=O)N[C@@H](CCC(=O)O)C(=O)N[C@@H](CC(C)C)C(=O)N[C@@H](CC(C)C)C(=O)N[C@@H](Cc1c[nH]cn1)C(=O)N[C@@H](CC(C)C)C(=O)N[C@@H](CC(C)C)C(=O)N[C@@H](CC(C)C)C(=O)N[C@@H](Cc1c[nH]cn1)C(=O)N[C@@H](C)C(=O)N[C@@H](C)C(=O)NCC(=O)N[C@@H](Cc1c[nH]c2ccccc12)C(N)=O :: 386
CC(C)C[C@H](NC(=O)CN)C(=O)N[C@@H](CC(C)C)C(=O)N[C@@H](Cc1c[nH]cn1)C(=O)N[C@@H](CC(C)C)C(=O)N[C@@H](CC(C)C)C(=O)N[C@@H](CCC(=O)O)C(=O)N[C@@H](CC(C)C)C(=O)N[C@@H](CC(C)C)C(=O)N[C@@H](CC(C)C)C(=O)N[C@@H](CCCCN)C(=O)N[C@@H](C)C(=O)N[C@@H](C)C(=O)NCC(=O)N[C@@H](Cc1c[nH]c2ccccc12)C(N)=O :: 97
CC(C)C[C@H](NC(=O)CN)C(=O)N[C@@H](CC(C)C)C(=O)N[C@@H](Cc1c[nH]cn1)C(=O)N[C@@H](CC(C)C)C(=O)N[C@@H](CC(C)C)C(=O)N[C@@H](CCC(=O)O)C(=O)N[C@@H](CC(C)C)C(=O)N[C@@H](CC(C)C)C(=O)N[C@@H](CC(C)C)C(=O)N[C@@H](CCC(=O)O)C(=O)N[C@@H](C)C(=O)N[C@@H](C)C(=O)NCC(=O)N[C@@H](Cc1c[nH]c2ccccc12)C(N)=O :: 100
CC(C)C[C@H](NC(=O)CN)C(=O)N[C@@H](CC(C)C)C(=O)N[C@@H](Cc1c[nH]cn1)C(=O)N[C@@H](CC(C)C)C(=O)N[C@@H](CC(C)C)C(=O)N[C@@H](Cc1c[nH]cn1)C(=O)N[C@@H](CC(C)C)C(=O)N[C@@H](CC(C)C)C(=O)N[C@@H](CC(C)C)C(=O)N[C@@H](CCC(=O)O)C(=O)N[C@@H](C)C(=O)N[C@@H](C)C(=O)NCC(=O)N[C@@H](Cc1c[nH]c2ccccc12)C(N)=O :: 143
CC(C)C[C@H](NC(=O)CN)C(=O)N[C@@H](CC(C)C)C(=O)N[C@@H](CC(=O)O)C(=O)N[C@@H](CC(C)C)C(=O)N[C@@H](CC(C)C)C(=O)N[C@@H](CCC(=O)O)C(=O)N[C@@H](CC(C)C)C(=O)N[C@@H](CC(C)C)C(=O)N[C@@H](CC(C)C)C(=O)N[C@@H](Cc1c[nH]cn1)C(=O)N[C@@H](C)C(=O)N[C@@H](C)C(=O)NCC(=O)N[C@@H](Cc1c[nH]c2ccccc12)C(N)=O :: 63

Continue with the compound presented below.
stdin: Please give the documented Peptide Concentration-induced 50% ANTS/DPX leakage at pH 4.8, POPC Vesicle of CC(C)C[C@H](NC(=O)CN)C(=O)N[C@@H](CC(C)C)C(=O)N[C@@H](CCC(=O)O)C(=O)N[C@@H](CC(C)C)C(=O)N[C@@H](CC(C)C)C(=O)N[C@@H](CCC(=O)O)C(=O)N[C@@H](CC(C)C)C(=O)N[C@@H](CC(C)C)C(=O)N[C@@H](CC(C)C)C(=O)N[C@@H](Cc1c[nH]cn1)C(=O)N[C@@H](C)C(=O)N[C@@H](C)C(=O)NCC(=O)N[C@@H](Cc1c[nH]c2ccccc12)C(N)=O
stdout: 58
